Target: prolyl endopeptidase (Elizabethkingia meningoseptica)
Sequence (P27028 21-705): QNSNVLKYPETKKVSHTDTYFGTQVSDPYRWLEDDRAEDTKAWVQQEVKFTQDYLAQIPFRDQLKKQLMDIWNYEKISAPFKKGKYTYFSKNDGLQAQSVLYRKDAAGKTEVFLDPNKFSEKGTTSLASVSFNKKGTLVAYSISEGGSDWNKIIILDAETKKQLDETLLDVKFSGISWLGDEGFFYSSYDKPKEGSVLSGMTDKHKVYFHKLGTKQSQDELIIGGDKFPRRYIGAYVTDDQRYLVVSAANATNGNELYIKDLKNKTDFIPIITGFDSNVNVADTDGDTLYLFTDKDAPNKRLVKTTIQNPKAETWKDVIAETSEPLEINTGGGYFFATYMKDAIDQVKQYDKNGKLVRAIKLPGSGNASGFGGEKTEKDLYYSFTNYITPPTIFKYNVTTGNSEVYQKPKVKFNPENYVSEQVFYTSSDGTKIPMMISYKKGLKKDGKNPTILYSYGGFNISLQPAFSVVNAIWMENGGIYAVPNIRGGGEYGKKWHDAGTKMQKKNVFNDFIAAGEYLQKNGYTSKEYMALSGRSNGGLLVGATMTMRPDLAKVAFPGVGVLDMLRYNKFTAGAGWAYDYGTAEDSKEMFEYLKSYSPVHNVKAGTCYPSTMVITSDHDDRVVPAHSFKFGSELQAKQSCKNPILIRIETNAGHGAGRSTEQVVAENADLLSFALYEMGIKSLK
Test: Measurement of anti-prolyl endopeptidase activity (decomposition of Z-glycyl-prolyl-β-naphthylamide)
Format: biochemical
Conditions: substrate Z-glycyl-proline-β-naphthylamide, phosphate buffer pH 7.0
Peptide text beside a SMILES is read from it. * marks the point of attachment. Hydrocinnamoyl = O=C(CCc1ccccc1)*
propertyMeasured: IC50 (amount needed to achieve 50% inhibition of prolyl endopeptidase) (ng/test tube)
Reply numerically in ng/test tube, unit not repeated.

The cases that follow already have their IC50 (amount needed to achieve 50% inhibition of prolyl endopeptidase) on record.
# input Recorded IC50 (amount needed to achieve 50% inhibition of prolyl endopeptidase) of O=C[C@@H]1CCCN1C(=O)[C@@H]1CCCN1C(=O)CCc1ccccc1 [SUAM 1339, N--(3-phenyl)propionyl--Pro--Pro--CHO] (Hydrocinnamoyl-Pro-Pro-aldehyde) , please.
# output 0.4

# input Form field: reported IC50 (amount needed to achieve 50% inhibition of prolyl endopeptidase) of O=C[C@@H]1CCCN1C(=O)[C@H](Cc1ccccc1)NC(=O)CCCc1ccccc1
# output 0.3

# input I am curious: what IC50 (amount needed to achieve 50% inhibition of prolyl endopeptidase) value has been reported for O=C[C@@H]1CCCN1C(=O)[C@@H]1CCCN1C(=O)CCCCc1ccccc1 ?
# output 0.2

# input IC50 (amount needed to achieve 50% inhibition of prolyl endopeptidase) for CC(C)[C@H](NC(=O)CCCc1ccccc1)C(=O)N1CCC[C@H]1C=O ?
# output 0.2

# input Dear colleague, I am looking for the recorded IC50 (amount needed to achieve 50% inhibition of prolyl endopeptidase) of the following compound: O=C[C@@H]1CCCN1C(=O)[C@@H]1CCCN1C(=O)CCCc1ccccc1
# output 0.2

Could you now consider this next compound?
# input What does the data say about its IC50 (amount needed to achieve 50% inhibition of prolyl endopeptidase)? Entry: CC(C)CC(NC(=O)CCCc1ccccc1)C(=O)N1CCCC1C=O (stereo not drawn)
# output 0.3
